- assayed.system: amino acid substituted PPO enzyme F420V (Amaranthus tuberculatus, UniProt Q0NZW9, F420V)
- measurement.notes: biochemical
experimental.endpoint: pIC50
Schema: pIC50 number; meaning minus log10 of the concentration expressed in molar units.

Query block: Name the recorded pIC50 of the compound listed here: C#CCN1C(=O)C(F)(F)Oc2cc(F)c(-n3c(=O)n(C)c(=S)n(C)c3=O)cc21
Result block: 8.61

====

- assayed.system: amino acid substituted PPO enzyme R128L (Amaranthus tuberculatus, UniProt Q0NZW9, R128L)
- measurement.notes: biochemical
experimental.endpoint: pIC50
Schema: pIC50 number; meaning minus log10 of the concentration expressed in molar units.

Query block: Name the recorded pIC50 of the molecule listed here: C#CCN1C(=O)C(F)(F)Oc2cc(F)c(-n3c(=O)n(C)c(=S)n(C)c3=O)cc21
Result block: 9.11
